species: Homo sapiens; experiment: Ratio of Kinact/Ki for PAD4 (unknown origin) to Kinact/Ki for PAD3 (unknown origin)
assay metric: Ratio

Here are 3 compounds together with their reported answers.
smiles notation	Ratio
N=C(CCl)NCCCc1nn(CC2CCCC2)c2cc(Cl)c(Cl)c(Cl)c12	11
N=C(CCl)NCCCc1nn(CC2CCCC2)c2ccc(Cl)cc12	1.6
N=C(CCl)NCCCc1nn(CC2CCCC2)c2cc(Cl)ccc12	2

[P] N=C(CCl)NCCCc1nn(CC2CCCC2)c2cccc(Cl)c12
[Q] N=C(CCl)NCCCc1nn(CC2CCCC2)c2cc(Cl)cc(Cl)c12
IN: I'd appreciate it if you could identify which of P and Q has the greater Ratio. Identify your pick by its label.
OUT: Q

---

molecular target: UniProt:Q9UM07
Sequence (Q9UM07 whole entry): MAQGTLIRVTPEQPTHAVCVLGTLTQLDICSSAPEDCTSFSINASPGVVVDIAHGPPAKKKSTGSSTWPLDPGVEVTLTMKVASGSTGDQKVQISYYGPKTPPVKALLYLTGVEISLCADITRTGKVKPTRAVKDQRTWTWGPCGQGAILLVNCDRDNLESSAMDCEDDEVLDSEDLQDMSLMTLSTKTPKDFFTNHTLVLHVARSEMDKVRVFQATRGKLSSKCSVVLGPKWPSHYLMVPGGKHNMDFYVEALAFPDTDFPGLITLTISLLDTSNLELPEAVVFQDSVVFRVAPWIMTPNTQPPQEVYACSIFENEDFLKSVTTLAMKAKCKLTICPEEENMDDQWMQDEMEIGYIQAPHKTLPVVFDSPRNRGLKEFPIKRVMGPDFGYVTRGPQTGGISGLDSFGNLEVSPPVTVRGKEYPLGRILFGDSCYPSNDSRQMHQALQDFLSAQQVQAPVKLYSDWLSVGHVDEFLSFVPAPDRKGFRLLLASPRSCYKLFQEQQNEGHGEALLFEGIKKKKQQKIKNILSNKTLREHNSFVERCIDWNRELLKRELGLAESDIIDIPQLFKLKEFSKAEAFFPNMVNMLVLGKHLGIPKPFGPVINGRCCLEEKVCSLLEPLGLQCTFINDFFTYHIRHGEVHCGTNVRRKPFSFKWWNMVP
assay metric: pIC50
Recall that pIC50 is obtained by taking minus log10 of the concentration measured in molar.

Query "Cn1cc(CCCNC(=N)CCl)c2ccccc21" yields pIC50 of 3.72
